Recorded values, source patent US20230391772A1.

Target: HSP90a protein (Homo sapiens, UniProt P07900)
Construct: purchased BPS Bioscience 50298
Test: HSP90α-binding fluorescent polarization (FP) assay, BODIPY-labeled RNK04010 probe
Details: FP competition with RNK04010 (BODIPY-labeled), 5 nM, 300 min at 25° C.
observed property: IC50

[[record]]
molecule = "CCC(=O)N1CCN(c2nc(NCCC(=O)N[C@H](C)c3ccc(CN4CCC(Cc5ccc(-n6c(O)nnc6-c6cc(C(C)C)c(O)cc6O)cc5)CC4)cc3)nc3c2CCN(c2cc(O)cc4ccccc24)C3)CC1"
observed_value = "< 100 nM"

[[record]]
molecule = "C=CC(=O)N1CCN(c2nc(OC[C@@H]3CC[C@H](C(=O)N4CCN(C(=O)C5CCN(Cc6ccc(-n7c(O)nnc7-c7cc(C(C)C)c(O)cc7O)cc6)CC5)CC4)N3C)nc3c2CCN(c2cccc4cccc(Cl)c24)C3)C[C@@H]1CC#N [Compound 305]"
observed_value = "< 100 nM"

[[record]]
molecule = "C=CC(=O)N1CCN(c2nc(OCCN3CCC(C(=O)N4CCC(Cc5ccc(-n6c(C(=O)NCC(F)(F)F)nnc6-c6cc(C(C)C)c(O)cc6O)cc5)CC4)CC3)nc3c2CCN(c2cccc4cccc(Cl)c24)C3)C[C@@H]1CC#N"
observed_value = "< 100 nM"

[[record]]
molecule = "C=CC(=O)N1CCN(c2nc(NCCC(=O)N3CCC(CN4CCN(Cc5ccc(-n6c(C(=O)NCC(F)(F)F)nnc6-c6cc(CC)c(O)cc6O)cc5)CC4)CC3)nc3c2CCN(c2cc(O)cc4ccccc24)C3)CC1"
observed_value = "100 to 1000 nM"

[[record]]
molecule = "C=CC(=O)N1CCN(c2nc(OC[C@@H]3C[C@H](N4CCC(C(=O)N5CCN(Cc6ccc(-n7c(O)nnc7-c7cc(CC)c(O)cc7O)cc6)CC5)CC4)CN3C)nc3c2CCN(c2cccc4cccc(Cl)c24)C3)C[C@@H]1CC#N"
observed_value = "< 100 nM"


For record C=CC(=O)N1CCN(c2nc(NCCC(=O)N3CCC(CN4CCN(Cc5ccc(-n6c(C(N)=O)nnc6-c6cc(CC)c(O)cc6O)cc5)CC4)CC3)nc3c2CCN(c2cccc4ccccc24)C3)C[C@H]1CC#N the listed IC50 is < 100 nM

For record C=CC(=O)N1CCN(c2nc(NCCC(=O)N3CCN(Cc4ccc5c(c4)CN(C(=O)c4cc(CC)c(O)cc4O)C5)CC3)nc3c2CCN(c2cc(O)cc4ccccc24)C3)CC1 the listed IC50 is > 1000 nM

For record CCc1cc(-c2nnc(C(=O)NCC(F)(F)F)n2-c2ccc(CN(C)Cc3ccc(CC4CCN(C(=O)CCNc5nc6c(c(N7CCN(C(C)=O)[C@H](CC#N)C7)n5)CCN(c5cccc7ccccc57)C6)CC4)cc3)cc2)c(O)cc1O the listed IC50 is > 1000 nM
